Values from ChEMBL document CHEMBL1201862

System: K562
experimentalProtocol: NCI tumour cell line growth inhibition, 48 h
The source made the active and inactive calls. No stated cut-off is given here; in the data, active = GI50 up to about 1.1 µM and inactive = higher.
parameter: GI50

Worked examples follow.
>  <molecule>
Cc1c[n+]([O-])c2ccccc2[n+]1[O-]

>  <GI50>
> 100 µM (inactive)

$$$$
>  <molecule>
CC(=O)Oc1cc(Cl)c(OC(C)=O)c2c(OC(C)=O)c(C)c(O[Si](C)(C)C(C)(C)C)cc12

>  <GI50>
3.22 µM (inactive)

$$$$
>  <molecule>
COc1ccc(-n2cnc3c(NC(CCSC)C(=O)O)ncnc32)cc1 (stereo not drawn)

>  <GI50>
> 100 µM (inactive)

$$$$
>  <molecule>
COc1cc(Oc2c(C)c(Cl)c(OC)c(Cl)c2OC)c2c(c1Cl)COC2=O

>  <GI50>
2.32 µM (inactive)

$$$$
>  <molecule>
CC(=O)Oc1c(-c2ccccc2)oc2ccccc12

>  <GI50>
2.06 µM (inactive)

$$$$

Form field GI50, entry CCCCc1ccc(Nc2cc(=O)n(C)c(=O)[nH]2)cc1 : 85.7 µM (inactive)

Form field GI50, entry Oc1ccc(/C=C/c2cccc(/C=C/c3ccc(O)c(O)c3)n2)cc1O : 3.86 µM (inactive)

Form field GI50, entry CC(=O)CC(=O)ON(C)C(=O)Cc1ccccc1 : > 100 µM (inactive)

Form field GI50, entry Cc1ccc2c(c1)CC1(C2=O)[C@H](c2ccccc2)C2C(=O)c3ccc(C)cc3C2[C@H]1c1ccccc1 (stereo partly drawn) : 30.7 µM (inactive)

Form field GI50, entry Oc1c(/N=N\c2ccccc2)c2cccc3ccc4cccc1c4c32 : > 100 µM (inactive)

Form field GI50, entry Cc1cc(NCCCCCCCCNc2cc(C)nc3cc(N)ccc23)c2ccc(N)cc2n1 : 1.95 µM (inactive)

----------
Tested on: SNB-19
experimentalProtocol: NCI tumour cell line growth inhibition, 48 h
The source made the active and inactive calls. Cut-off read from the data, not from the text of the source: active = GI50 up to about 1.1 µM and inactive = higher.
Your response should consist of one outcome taken from 1.0 (active), 0.0 (inactive)

>  <compound>
CCOc1ccccc1NC(=O)CCc1nnc2s/c(=C\CCc3ccccc3)c(=O)n12

>  <answerLabel>
0.0

$$$$
>  <compound>
Oc1ccc(/C=C/c2cc(O)cc(O)c2)cc1

>  <answerLabel>
0.0

$$$$
>  <compound>
CN1C(=O)N(C)C(N2CCCC2)c2c1nc1ccccn1c2=O (stereo not drawn)

>  <answerLabel>
0.0

$$$$
>  <compound>
CC(CCCOC(c1ccccc1)(c1ccccc1)c1ccccc1)OC(=O)Nc1cc([N+](=O)[O-])cc([N+](=O)[O-])c1 (stereo not drawn)

>  <answerLabel>
0.0

$$$$
>  <compound>
CN1N=C(c2ccncc2)OC1c1cccc(C(F)(F)F)c1 (stereo not drawn)

>  <answerLabel>
0.0

$$$$

What is the recorded call for this compound in the test? N[C@H]1c2c(Br)sc(Br)c2C(=O)[C@H]1O
0.0

What is the recorded call for this compound in the test? S=c1sscc1N1CCSc2ssc(=S)c21
0.0

What is the recorded call for this compound in the test? CCSc1c(C)c2c(n(Cc3ccc(OC)cc3)c1=O)Cc1ccccc1C2
0.0

----------
Test system: Hs-578T
experimentalProtocol: NCI tumour cell line growth inhibition, 48 h
Calls of active or inactive are those of the source. Rule as the data show it: active = GI50 up to about 1.1 µM and inactive = higher.
Entries and their measured GI50 follow.

>  <molecule>
CCCCc1ccc(Nc2cc(=O)n(C)c(=O)[nH]2)cc1

>  <systemTested>
Hs-578T

>  <GI50>
> 100 µM (inactive)

$$$$
>  <molecule>
COc1ccc(OCC(=N/NC(=O)c2ccncc2)/N=C/c2ccncc2)cc1

>  <systemTested>
Hs-578T

>  <GI50>
> 100 µM (inactive)

$$$$
>  <molecule>
CN(/N=C/c1cccs1)c1ccc(Cl)cc1[N+](=O)[O-]

>  <systemTested>
Hs-578T

>  <GI50>
25.4 µM (inactive)

$$$$
>  <molecule>
O=c1[nH]cc(/N=C/c2cc(Cl)ccc2O)c(=O)[nH]1

>  <systemTested>
Hs-578T

>  <GI50>
47.2 µM (inactive)

$$$$
>  <molecule>
S=c1sc2c(s1)SCCCCSCCCCSc1sc(=S)sc1SCCCCSCCCCS2

>  <systemTested>
Hs-578T

>  <GI50>
30.2 µM (inactive)

$$$$

Form field GI50, entry OC[C@H]1CC(c2nn[nH]n2)[C@H](O)[C@@H]1O (stereo partly specified) : > 100 µM (inactive)

Form field GI50, entry C=CCN1C[C@H](C)N([C@H](c2ccc(C(=O)N(CC)CC)cc2)c2cccc(OC)c2)C[C@H]1C : 26 µM (inactive)

----------
Test system: SF-539
experimentalProtocol: NCI tumour cell line growth inhibition, 48 h
Calls of active or inactive are those of the source. Cut-off read from the data, not from the text of the source: active = GI50 up to about 1.1 µM and inactive = higher.
parameter: GI50

Worked examples follow.
>  <compound>
CC(=O)Oc1c(-c2ccccc2)oc2ccccc12

>  <systemTested>
SF-539

>  <GI50>
1.36 µM (inactive)

$$$$
>  <compound>
COC(=O)C(/C(=N\O)C(=O)Nc1cccc(Cl)c1C)c1cnc2ccccc2n1 (centres undefined)

>  <systemTested>
SF-539

>  <GI50>
> 100 µM (inactive)

$$$$
>  <compound>
FC(F)(F)c1cc(C2SCc3nc4ccccc4n32)cc(C(F)(F)F)c1 (centres undefined)

>  <systemTested>
SF-539

>  <GI50>
24.6 µM (inactive)

$$$$
>  <compound>
O=C1C=CC(=O)N1n1c(-c2ccccc2)n[nH]c1=O

>  <systemTested>
SF-539

>  <GI50>
> 100 µM (inactive)

$$$$
>  <compound>
O=[PH](O)c1cccs1

>  <systemTested>
SF-539

>  <GI50>
> 100 µM (inactive)

$$$$
>  <compound>
COc1cc(OC)c2c(=O)c3cccc(C)c3n(C)c2c1

>  <systemTested>
SF-539

>  <GI50>
68.5 µM (inactive)

$$$$
>  <compound>
NCCC(=O)NC(Cc1c[nH]cn1)C(=O)O (centres undefined)

>  <systemTested>
SF-539

>  <GI50>
> 100 µM (inactive)

$$$$
>  <compound>
COC(=O)[C@H](Cc1ccccc1)NC(=O)NCCN(CCNC(=O)N[C@@H](Cc1ccccc1)C(=O)OC)C(=O)N[C@@H](Cc1ccccc1)C(=O)OC

>  <systemTested>
SF-539

>  <GI50>
18.8 µM (inactive)

$$$$

Then there is this compound:
Form field GI50, entry CCCC1C(C#N)(C#N)C(C#N)=C(N)C1(C)C(C)=O (centres undefined) : > 100 µM (inactive)

----------
Entries and their measured GI50 follow.
Test system: M14
experimentalProtocol: NCI tumour cell line growth inhibition, 48 h
Active and inactive are the calls of the source. Cut-off read from the data, not from the text of the source: active = GI50 up to about 1.1 µM and inactive = higher.

Worked examples follow.
>  <molecule>
COC1(OC)CC2C(=O)N(Cc3ccccc3)C1C(S(=O)(=O)c1ccccc1)C2C(C)S(=O)(=O)c1ccccc1 (stereo not drawn)

>  <GI50>
> 100 µM (inactive)

$$$$
>  <molecule>
N=c1nc(N)nc(N)n1-c1ccc(S(N)(=O)=O)cc1

>  <GI50>
> 100 µM (inactive)

$$$$

Simply: CCCC(=O)NC(Nc1ccc(S(=O)(=O)Nc2nc(C)cc(C)n2)cc1)(C(F)(F)F)C(F)(F)F , M14, GI50 = > 100 µM (inactive)

----------
Test system: K562
experimentalProtocol: NCI tumour cell line growth inhibition, 48 h
The source made the active and inactive calls. Cut-off read from the data, not from the text of the source: active = GI50 up to about 1.1 µM and inactive = higher.
parameter: GI50

Worked examples follow.
>  <molecule>
CCOC(=O)Cc1nc2cc(F)c(F)cc2[nH]c1=O

>  <reading>
> 100 µM (inactive)

$$$$
>  <molecule>
CN1N=C(c2ccncc2)OC1c1cccc(C(F)(F)F)c1 (configuration not stated)

>  <reading>
96.8 µM (inactive)

$$$$

Form field GI50, entry CCOC(=O)C=C1CCC2(CC1)OCCO2 : > 100 µM (inactive)

Form field GI50, entry CC(=O)NCC1OC2COC(c3ccccc3)OC2C(NC(=O)c2ccccc2)C1OC(=O)c1ccccc1 (configuration not stated) : > 100 µM (inactive)

Form field GI50, entry COc1ccccc1/C=C1\Sc2scc(-c3ccc(O)c(O)c3)[n+]2C1=O : 9.51 µM (inactive)

Form field GI50, entry CC(C)(C)c1cc2c3c(c1)C(C(F)(F)F)(C(F)(F)F)O[Te]3(C)OC2(C(F)(F)F)C(F)(F)F : > 100 µM (inactive)

Form field GI50, entry [O-][n+]1cn[n+]([O-])c2ccccc21 : 6.95 µM (inactive)

----------
System: SNB-19
experimentalProtocol: NCI tumour cell line growth inhibition, 48 h
Active and inactive are the calls of the source. No stated cut-off is given here; in the data, active = GI50 up to about 1.1 µM and inactive = higher.
Your response should consist of one outcome taken from 1 (yes) for active, 0 (no) for inactive

Some solved cases for reference:
>  <compound>
O=c1onc2n1-c1ccc(Cl)cc1C(=S)N1CSCC21 (stereo not given)

>  <answerLabel>
0 (no)

$$$$
>  <compound>
CCCCCCCCC/C=C/C=C/C(=O)NCC(=O)NC1C(O)C(O)C(Nc2ncnc3[nH]cnc23)OC1C(O)CO (stereo not given)

>  <answerLabel>
1 (yes)

$$$$
>  <compound>
Cc1cccc(C)c1/N=N/c1ccc(O)c(CN(C)C)c1

>  <answerLabel>
0 (no)

$$$$
>  <compound>
CC(C)(Oc1ccc(C2C[C@H]2Cl)cc1)C(=O)O (stereo not given in full)

>  <answerLabel>
0 (no)

$$$$
>  <compound>
C/C(=N/Nc1ccc([N+](=O)[O-])cc1[N+](=O)[O-])C(CC(C(=O)NCc1ccccc1)/C(C)=N\Nc1ccc([N+](=O)[O-])cc1[N+](=O)[O-])C(=O)NCc1ccccc1 (stereo not given)

>  <answerLabel>
0 (no)

$$$$
>  <compound>
Cc1ccc2c(O)cc(-c3sc4ccccc4c3C)nc2n1

>  <answerLabel>
0 (no)

$$$$

Here is another compound to look at.
What is the recorded call for this compound in the test? C[n+]1c2ccccc2c(C(=O)Nc2ccc(S(=O)(=O)Nc3ncccn3)cc2)c2ccccc21
0 (no)
